System: P-glycoprotein
Protocol Summary: Permeability assessed as human P-glycoprotein-mediated transport across basolateral to apical side expressed in pig LLC-PK1 cells at 500 uM by liquid scintillation counting
Format: ADME, cell-based

| Smiles Notation | Papp B→A at 500 µM [×10⁻⁶ cm/s] |
| --- | --- |
| CC#CCn1c(N2CCC[C@@H](N)C2)nc2c1c(=O)n(Cc1nc(C)c3ccccc3n1)c(=O)n2C | 15.7 |

----------
Tested on: P-glycoprotein
Protocol Summary: Permeability assessed as human P-glycoprotein-mediated transport across basolateral to apical side expressed in pig LLC-PK1 cells at 2 uM by liquid scintillation counting
Format: ADME, cell-based

| Smiles Notation | Test Target | Unit Annotation | Papp B→A at 2 µM |
| --- | --- | --- | --- |
| CC#CCn1c(N2CCC[C@@H](N)C2)nc2c1c(=O)n(Cc1nc(C)c3ccccc3n1)c(=O)n2C | P-glycoprotein | ×10⁻⁶ cm/s | 39.4 |

Data provenance is ChEMBL document CHEMBL3525903.
